# Lookup of reported TGI keyed by entry
Tested on: UO-31 renal
TEST_DETAILS: NCI tumour cell line growth inhibition, 48 h
MEASUREMENT_NAME: TGI

>>> measured_result("O=c1[nH]c(=O)n(C2CC(O)C(CO)O2)cc1C(F)(C(F)(F)F)C(F)(F)F (stereo not drawn)")
"> 100 µM"
>>> measured_result("CC(=O)NCCCCN(CCCNC(C)=O)C(=O)CNS(=O)(=O)c1cccc2c(N(C)C)cccc12")
"> 100 µM"
>>> measured_result("CC1C2CC(CC2(C)O)C1(C)C (stereo not drawn)")
"> 100 µM"

###

Test system: UACC-62 melanoma
TEST_DETAILS: NCI tumour cell line growth inhibition, 48 h
Reported TGI is given for each of the following compounds.
MEASUREMENT_NAME: TGI

>>> measured_result("COc1ccc(N2C(=O)C3c4[nH]c5ccccc5c4C4CC(C)(C)CC(C)(C)C4C3C2=O)cc1 (configuration not stated)")
"27.6 µM"
>>> measured_result("CC(=O)Nc1cccc(N2C(=O)/C(=C\\c3cccc(Oc4ccccc4)c3)S(=O)(=O)C2c2ccccc2)c1 (configuration not stated)")
"> 100 µM"
>>> measured_result("CCOC(=O)C1=C(C)NC2=C(C(=O)N(c3ccccc3)C2c2ccccc2)C1c1ccccc1 (configuration not stated)")
"26.7 µM"
>>> measured_result("O/N=C(/CC(O)(C(F)(F)F)C(F)(F)F)c1ccccc1")
"> 10 µM"
>>> measured_result("CCC/C(Cl)=N/OC(=O)Nc1cc(C(F)(F)F)ccc1OC")
"28.8 µM"
>>> measured_result("O=C(O)CC(NC(=O)/C(=C/c1ccccc1)NC(=O)c1ccccc1)C(=O)O (configuration not stated)")
"> 100 µM"
>>> measured_result("O=[N+]([O-])c1ccc(N/N=C2/CC3=C2CCCCCCCCCC3)c([N+](=O)[O-])c1")
"> 100 µM"
>>> measured_result("COc1ccc2c3c1OC1C(OC)(OC)C=C[C@@]4(Br)[C@@H](C2)N(CC2CC2)CC[C@]314 (some centres not stated)")
"> 100 µM"
>>> measured_result("Cc1[nH]c2ccccc2c1CC/C(=N\\Nc1ccccc1)c1ccccc1")
"> 100 µM"
>>> measured_result("CSc1nc(CO)c(CO)n1C")
"> 100 µM"
>>> measured_result("CC(C)(C)c1cc(/C=N/NC(=O)c2ccccc2NC(=O)c2cccs2)c(O)c(C(C)(C)C)c1")
"14 µM"
>>> measured_result("O=C(/C=C/c1ccccc1O)c1ccc([N+](=O)[O-])cc1")
"31.2 µM"
>>> measured_result("CC(=O)NCCCCN(CCCNC(C)=O)C(=O)CNS(=O)(=O)c1cccc2c(N(C)C)cccc12")
"> 100 µM"
>>> measured_result("CSc1nn(C)cc2ncnc1-2")
"> 100 µM"
>>> measured_result("O=C(O)c1ccccc1CC1Cc2cc3c(cc2C1)CCC3")
"> 100 µM"
>>> measured_result("N#CCC(=O)N/N=C1/C(=O)N(c2cc(Cl)ccc2Cl)C(=O)C(=O)C1c1nc2ccccc2s1 (configuration not stated)")
"93.2 µM"
>>> measured_result("CC(C)(C)c1cc(CCCCCCCC2(CCCCCCCc3cc(C(C)(C)C)cc(C(C)(C)C)c3)OC(COCCOCCCCCC#N)C(COCCOCCCCCC#N)O2)cc(C(C)(C)C)c1 (configuration not stated)")
"> 100 µM"

Just for reference, PubChem BioAssay (NCI) is where these values come from.
